tested on: T-47D breast; assay: NCI-60 one-dose screen, 48 h (100 = growth as untreated, 0 = no growth, -100 = all killed); details: 10 µM unless noted
About 83,000 compounds went through this panel and 20% of them were active in at least one assay; those are over-represented in the sample as a whole.
Binarize growth at 20%; below is TRUE, at or above is FALSE.

[[record]]
molecule = "Cn1cc(-c2cc(N)n3nc(-c4c[nH]c5ccc(Cl)cc45)cc3n2)c2cc(Br)cnc21"
discrete_label = "TRUE"

[[record]]
molecule = "O=[N+]([O-])c1cccc(-c2nnc3c(/C=C/c4ccc(F)cc4)nc4ccccc4n23)c1"
discrete_label = "FALSE"

[[record]]
molecule = "NS(=O)(=O)c1ccc(Nc2nc(N/N=C/c3cc(Br)c(O)c(Br)c3)nc(Nc3ccccc3)n2)cc1"
discrete_label = "FALSE"

[[record]]
molecule = "CN(C)C(=O)c1cc(-c2ccc3ncnc(N4CCc5cc(F)c(Cl)cc54)c3c2)cnc1N"
discrete_label = "TRUE"

[[record]]
molecule = "Oc1cncc(-c2ccc3ncnc(N4CCc5cc(F)c(Cl)cc54)c3c2)c1"
discrete_label = "FALSE"

[[record]]
molecule = "CCN1C(=O)N(CC)C2NNC(Sc3c(C(=O)O)c4ccccc4n(CCC(C)C)c3=O)=NC21 (centres undefined)"
discrete_label = "FALSE"

[[record]]
molecule = "N#Cc1cc(-c2ccc3ncnc(N4CCc5cc(F)c(Cl)cc54)c3c2)cnc1N"
discrete_label = "FALSE"

[[record]]
molecule = "COc1cccc(C(N)=Nc2ccc(OCCCCCCCCn3cncn3)cc2)c1"
discrete_label = "FALSE"

[[record]]
molecule = "O=C(N/N=C/c1c[nH]c2ccccc12)Nc1ccc(F)c(Cl)c1"
discrete_label = "FALSE"

[[record]]
molecule = "N#Cc1ccc(C(=O)NNC(=O)CSc2nc3sc4c(c3c(=O)n2-c2ccc(Cl)cc2)CCCC4)cc1"
discrete_label = "FALSE"

[[record]]
molecule = "COc1ccc(NC2=C(I)C(=O)C(C)=C(C)C2=O)cc1"
discrete_label = "TRUE"

[[record]]
molecule = "COc1ccc(-c2cc(-c3ccccc3)c(C#N)c(=O)[nH]2)cc1S(N)(=O)=O"
discrete_label = "FALSE"

[[record]]
molecule = "C=CC(=O)Nc1ccc(C(=O)/C=C/c2ccc(N(C)C)cc2)c(O)c1"
discrete_label = "TRUE"

[[record]]
molecule = "O=C(NN1C(=O)/C(=C/C=C/c2ccc([N+](=O)[O-])o2)SC1=S)c1ccc([N+](=O)[O-])cc1"
discrete_label = "TRUE"

[[record]]
molecule = "Nc1nn2c(-c3cc4cc(Br)ccc4oc3=O)ccnc2c1N=Nc1ccc(Br)cc1"
discrete_label = "FALSE"

[[record]]
molecule = "COC(=O)c1ccc(-c2c(-c3ccccc3)c(F)c3oc(C(=O)OC)c(N)c3c2-c2ccccc2)cc1"
discrete_label = "FALSE"

[[record]]
molecule = "CN(C)c1nc(NCCNS(=O)(=O)c2ccc(C3=Nc4c(N)nc(N)nc4NC(c4ccc(C(F)(F)F)cc4)C3)cc2)nc(N2CCOCC2)n1 (centres undefined)"
discrete_label = "FALSE"

[[record]]
molecule = "COc1ccc(N=Nc2c(N)nn3c(N)c(C#N)c(-c4ccccc4)nc23)cc1"
discrete_label = "TRUE"

[[record]]
molecule = "COc1cc(-c2ccc3ncnc(N4CCc5ccc(Cl)cc54)c3c2)cnc1Cl"
discrete_label = "TRUE"

